These data points were gathered from patent US8822449B2.

target: sodium-proton exchanger of subtype 3 (NHE3) (Homo sapiens); construct: expressed in transfected cells; assay: Recovery of intracellular pH (pHi) after acidification in LAP1 cells stably expressing NHE3 (BCECF fluorescence, FLIPR); format: cell-based; settings: LAP1 cells stably expressing NHE3; pH recovery after acidification; range 1 is % inhibition at 10 μM; read-out: Activity range (inhibitory effect on NHE3)
property.measured: IC50

compound="N[C@@H]1CCCN([C@@H]2Cc3ccccc3[C@H]2Oc2ccc(Br)cc2-c2cc[nH]n2)C1 (racemic)" result="1000 to 10000 nM"
compound=CS(=O)(=O)c1ccc(O[C@H]2c3cc(Cl)cc(F)c3C[C@@H]2N2CC[C@@H](O)C2)c(Cl)c1 result="< 1000 nM"
compound="N[C@H]1CCCN([C@H]2CCc3ccccc3[C@@H]2Oc2cccc3ncccc23)C1 (racemic)" result="1000 to 10000 nM"
compound=O[C@@H]1CCN([C@H]2Cc3c(Cl)cc(Cl)cc3[C@@H]2Oc2ccc(-n3ccnc3)cc2)C1 result="1000 to 10000 nM"
compound=Cc1nnc(C)n1-c1ccc(O[C@H]2c3cc(Cl)cc(Cl)c3C[C@@H]2N2CCCN(C)CC2)c(F)c1 result="< 1000 nM"
compound="N#Cc1ccc(O[C@@H]2c3ccccc3C[C@H]2N2CCC(CN)CC2)cc1Cl (racemic)" result="1000 to 10000 nM"
compound="N[C@H]1CCCN([C@@H]2Cc3ccccc3[C@H]2Oc2ccc(-n3cncn3)cc2)C1 (racemic)" result="1000 to 10000 nM"

====

molecular target: sodium-proton exchanger of subtype 3 (NHE3) (Homo sapiens, UniProt P48764); construct: expressed in transfected cells; assay: Recovery of intracellular pH (pHi) after acidification in LAP1 cells stably expressing NHE3 (BCECF fluorescence, FLIPR); assay type: cell-based; details: LAP1 cells stably expressing NHE3; pH recovery after acidification; range 1 is % inhibition at 10 μM; read-out: Activity range (inhibitory effect on NHE3)
Sequence (P48764 26-834, species assumed): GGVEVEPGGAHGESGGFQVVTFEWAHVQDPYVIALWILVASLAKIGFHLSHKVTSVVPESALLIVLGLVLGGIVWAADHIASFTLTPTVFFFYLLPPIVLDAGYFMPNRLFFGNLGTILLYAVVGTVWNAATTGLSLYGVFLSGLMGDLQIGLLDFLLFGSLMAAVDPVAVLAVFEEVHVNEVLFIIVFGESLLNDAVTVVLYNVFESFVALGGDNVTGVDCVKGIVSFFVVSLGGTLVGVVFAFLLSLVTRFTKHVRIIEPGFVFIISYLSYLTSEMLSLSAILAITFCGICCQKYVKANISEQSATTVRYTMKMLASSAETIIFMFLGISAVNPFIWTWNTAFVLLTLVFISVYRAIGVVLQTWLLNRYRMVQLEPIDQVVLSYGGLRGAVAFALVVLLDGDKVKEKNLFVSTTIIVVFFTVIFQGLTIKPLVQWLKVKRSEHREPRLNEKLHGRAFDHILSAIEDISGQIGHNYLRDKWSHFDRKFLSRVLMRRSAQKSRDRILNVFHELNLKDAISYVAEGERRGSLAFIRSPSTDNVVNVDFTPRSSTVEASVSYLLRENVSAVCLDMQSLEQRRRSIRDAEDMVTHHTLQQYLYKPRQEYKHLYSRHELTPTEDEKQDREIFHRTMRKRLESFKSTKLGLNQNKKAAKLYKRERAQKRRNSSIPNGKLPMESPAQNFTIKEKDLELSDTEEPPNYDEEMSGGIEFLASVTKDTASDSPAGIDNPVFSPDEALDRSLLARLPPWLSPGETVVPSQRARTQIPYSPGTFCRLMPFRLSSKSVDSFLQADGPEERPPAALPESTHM
property.measured: IC50

compound="N#Cc1ccc(O[C@H]2c3ccccc3CC[C@@H]2N2CCC[C@@H](N)C2)c(F)c1F (racemic)" tested_on="sodium-proton exchanger of subtype 3 (NHE3) (Homo sapiens, UniProt P48764)" property_measured=IC50 result="1 to 10 µM"
compound=CC(=O)Nc1cccc(O[C@H]2c3ccccc3C[C@@H]2N2CCC[C@@H](N(C)C)C2)c1 tested_on="sodium-proton exchanger of subtype 3 (NHE3) (Homo sapiens, UniProt P48764)" property_measured=IC50 result="< 1 µM"
compound=O=C1CCc2c(cccc2O[C@H]2c3cc(Cl)cc(Cl)c3C[C@@H]2N2CC[C@@H](O)C2)N1 tested_on="sodium-proton exchanger of subtype 3 (NHE3) (Homo sapiens, UniProt P48764)" property_measured=IC50 result="1 to 10 µM"
compound="Cc1ccc2c(c1)C(Oc1ccc(S(N)(=O)=O)cc1)C(N1CCCC1)C2 (racemic)" tested_on="sodium-proton exchanger of subtype 3 (NHE3) (Homo sapiens, UniProt P48764)" property_measured=IC50 result="1 to 10 µM"
compound="Cn1ccn(-c2cccc(O[C@H]3c4ccccc4C[C@@H]3N3CCCC3)c2)c1=O (racemic)" tested_on="sodium-proton exchanger of subtype 3 (NHE3) (Homo sapiens, UniProt P48764)" property_measured=IC50 result="< 1 µM"
compound=CC1(C)OC(=O)N(c2ccc(Cl)c(O[C@H]3c4cc(Cl)cc(F)c4C[C@@H]3N3CC[C@@H](O)C3)c2)C1=O tested_on="sodium-proton exchanger of subtype 3 (NHE3) (Homo sapiens, UniProt P48764)" property_measured=IC50 result="1 to 10 µM"
compound="Cc1cc(O[C@H]2c3cc(F)cc(Cl)c3C[C@@H]2N2CCC[C@@H](N)C2)ccc1S(=O)(=O)C(F)(F)F (racemic)" tested_on="sodium-proton exchanger of subtype 3 (NHE3) (Homo sapiens, UniProt P48764)" property_measured=IC50 result="1 to 10 µM"
